Please provide measured IC50 for the entries that follow.
test-system: Gamma-aminobutyric acid receptor subunit alpha-3 (Homo sapiens, UniProt P34903)
Sequence (P34903 whole entry): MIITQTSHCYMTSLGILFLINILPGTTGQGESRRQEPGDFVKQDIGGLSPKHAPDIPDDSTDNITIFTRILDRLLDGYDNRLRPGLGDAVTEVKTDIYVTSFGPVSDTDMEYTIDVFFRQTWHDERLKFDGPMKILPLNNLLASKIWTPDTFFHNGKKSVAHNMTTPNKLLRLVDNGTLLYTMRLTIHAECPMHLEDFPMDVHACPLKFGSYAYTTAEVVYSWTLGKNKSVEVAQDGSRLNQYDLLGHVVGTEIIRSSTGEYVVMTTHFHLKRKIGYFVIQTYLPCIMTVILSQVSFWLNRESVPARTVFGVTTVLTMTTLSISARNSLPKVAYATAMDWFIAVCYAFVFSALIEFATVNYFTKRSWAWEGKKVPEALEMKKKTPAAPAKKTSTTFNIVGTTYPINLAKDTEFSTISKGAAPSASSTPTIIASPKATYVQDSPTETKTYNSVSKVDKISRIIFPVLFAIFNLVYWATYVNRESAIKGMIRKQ
procedure-text: Inhibition of GABAA alpha3 receptor (unknown origin)
Please don't drop the unit; write it after the number.

Under Gamma-aminobutyric acid receptor subunit alpha-3 (Homo sapiens, UniProt P34903): IC50 value of "c1ccc2c(c1)[nH]c1cnc3c4ccncc4[nH]c3c12" ?
31 nM

How about "c1ccc2c(c1)[nH]c1cnc3c4cccnc4[nH]c3c12" ?
16 nM

----------
test-system: Gamma-aminobutyric acid receptor subunit alpha-3 (Homo sapiens)
procedure-text: Inhibition of human recombinant GABAA alpha3 receptor
pIC50: −log10 of the molar value.
readout-kind: pIC50

Request - read-out pIC50 | tested on Gamma-aminobutyric acid receptor subunit alpha-3 (Homo sapiens) | compound CC(OC(=O)c1cc2c(cn1)[nH]c1ccccc12)c1ccccc1 (stereo unspecified)
< 6.00

----------
test-system: Mitogen-activated protein kinase 1 (Homo sapiens, UniProt P28482)
Sequence (P28482 whole entry): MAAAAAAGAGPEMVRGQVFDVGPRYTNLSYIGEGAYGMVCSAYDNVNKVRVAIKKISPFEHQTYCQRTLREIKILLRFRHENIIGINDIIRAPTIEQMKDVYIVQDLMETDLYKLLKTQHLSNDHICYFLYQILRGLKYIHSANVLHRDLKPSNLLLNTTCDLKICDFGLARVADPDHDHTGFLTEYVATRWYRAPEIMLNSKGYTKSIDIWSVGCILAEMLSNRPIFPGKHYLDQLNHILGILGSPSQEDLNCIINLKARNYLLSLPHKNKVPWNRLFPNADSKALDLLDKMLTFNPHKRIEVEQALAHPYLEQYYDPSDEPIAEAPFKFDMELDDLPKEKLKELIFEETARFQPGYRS
procedure-text: Inhibition of ERK2 (unknown origin)
readout-kind: IC50

Returns the measured IC50 for the input molecule. Input: "COc1ccc2c(c1)[nH]c1c(C)nccc12"
> 30 µM

----------
Record set of pIC50 for target or system cGMP-specific 3',5'-cyclic phosphodiesterase (Homo sapiens).
Value format note: pIC50 is -log10 of concentration (mol/L); just state the number.

Fill in: pIC50 of CCCCN1CC(=O)N2C(Cc3c([nH]c4ccccc34)C2c2ccc3c(c2)OCO3)C1=O (stereo not drawn) is ___
8.52

How about this compound: O=C1C2Cc3c([nH]c4ccccc34)C(c3ccc4c(c3)OCO4)N2C(=O)CN1C1CCCCC1 (stereo not drawn)
8.52

And for "COc1ccc([C@@H]2c3[nH]c4ccccc4c3C[C@@H]3C(=O)N(CCC4CCN(Cc5ccccc5)CC4)CC(=O)N23)cc1" ?
6.70

Now this one: "CCCCN1CC(=O)N2[C@H](c3ccc(Br)cc3)c3[nH]c4ccccc4c3C[C@H]2C1=O"
8.00

Then O=C1C2Cc3c([nH]c4ccccc34)[C@@H](c3ccc4c(c3)OCO4)N2C(=O)CN1CCC1CCN(Cc2ccccc2)CC1 (stereo partly drawn) ?
6.82

Same lookup for "CCN1C(=O)[C@H]2Cc3c([nH]c4ccccc34)[C@@H](c3ccc(Br)s3)N2C1=O" , please.
6.77

Same question, "COc1ccc([C@@H]2c3[nH]c4ccccc4c3C[C@H]3C(=O)N(CCC4CCN(Cc5ccccc5)CC4)CC(=O)N23)cc1" this time
5.49

# repeat for "COC(=O)[C@@H]1Cc2c([nH]c3ccccc23)[C@@H](c2ccc(Cl)cc2)N1C(=O)CCl"
5.57

----------
test-system: 5-hydroxytryptamine receptor 2C (Rattus norvegicus, UniProt P08909)
Sequence (P08909 whole entry): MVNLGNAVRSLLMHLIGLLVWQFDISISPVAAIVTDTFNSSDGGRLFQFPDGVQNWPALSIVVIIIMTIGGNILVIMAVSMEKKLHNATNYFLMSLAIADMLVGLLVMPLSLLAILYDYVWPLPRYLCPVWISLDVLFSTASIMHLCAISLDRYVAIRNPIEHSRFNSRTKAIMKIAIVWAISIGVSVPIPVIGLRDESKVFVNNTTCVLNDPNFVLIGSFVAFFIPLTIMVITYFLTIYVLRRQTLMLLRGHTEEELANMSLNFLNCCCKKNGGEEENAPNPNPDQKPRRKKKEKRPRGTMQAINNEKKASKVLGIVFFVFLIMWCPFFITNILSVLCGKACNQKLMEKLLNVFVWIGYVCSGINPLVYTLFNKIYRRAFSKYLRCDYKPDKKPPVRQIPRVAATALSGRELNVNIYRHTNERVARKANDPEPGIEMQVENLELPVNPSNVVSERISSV
readout-kind: Ki

Lab request: please report Ki under test system 5-hydroxytryptamine receptor 2C (Rattus norvegicus, UniProt P08909) for COc1ccc2c3c([nH]c2c1)C(C)NCC3 (stereo unspecified)
> 10 µM

----------
test-system: Gamma-aminobutyric acid receptor subunit alpha-4 (Homo sapiens, UniProt P48169)
Sequence (P48169 whole entry): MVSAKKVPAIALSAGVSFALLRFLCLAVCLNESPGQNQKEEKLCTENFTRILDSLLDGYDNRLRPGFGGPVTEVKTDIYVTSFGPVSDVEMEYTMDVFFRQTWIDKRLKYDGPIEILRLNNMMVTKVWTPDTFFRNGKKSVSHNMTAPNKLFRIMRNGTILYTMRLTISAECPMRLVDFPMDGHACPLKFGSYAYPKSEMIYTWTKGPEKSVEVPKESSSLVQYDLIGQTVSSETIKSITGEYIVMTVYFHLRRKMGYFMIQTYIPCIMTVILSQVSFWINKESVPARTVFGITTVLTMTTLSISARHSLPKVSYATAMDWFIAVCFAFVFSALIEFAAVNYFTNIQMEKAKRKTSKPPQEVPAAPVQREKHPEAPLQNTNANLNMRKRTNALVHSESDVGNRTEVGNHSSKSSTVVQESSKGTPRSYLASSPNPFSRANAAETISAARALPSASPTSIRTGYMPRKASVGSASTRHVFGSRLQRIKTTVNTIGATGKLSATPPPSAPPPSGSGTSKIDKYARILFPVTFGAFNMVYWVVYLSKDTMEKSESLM
procedure-text: Binding affinity to human recombinant GABAA alpha4 receptor assessed as inhibition constant incubated for 1 hrs by liquid scintillation counting analysis
Task for the reader: assign each of the following compounds its reported Ki.
Give the quantity in µM, number only.

Dear colleague, I am looking for the recorded Ki of the following compound: "COC(=O)c1cc2c(cn1)[nH]c1ccccc12"
1

Now the same for "COCc1c(C(=O)OC(C)C)ncc2[nH]c3ccc(OCc4ccccc4)cc3c12"
1.2

Try the compound CC(OC(=O)c1cc2c(cn1)[nH]c1ccccc12)c1ccccc1 (stereo unspecified)
1

Record: "CCCOc1cc2c(cn1)[nH]c1ccccc12"
1

How about this compound: "CC(C)(C)OC(=O)c1cc2c(cn1)[nH]c1ccccc12"
1

Another compound: "C#Cc1ccc2[nH]c3cnc(C(=O)OC(C)(C)C)cc3c2c1"
2

----------
Kindly supply the reported IC50 values for the records listed here.
test-system: Acetylcholinesterase (Homo sapiens, UniProt P22303)
Sequence (P22303 whole entry): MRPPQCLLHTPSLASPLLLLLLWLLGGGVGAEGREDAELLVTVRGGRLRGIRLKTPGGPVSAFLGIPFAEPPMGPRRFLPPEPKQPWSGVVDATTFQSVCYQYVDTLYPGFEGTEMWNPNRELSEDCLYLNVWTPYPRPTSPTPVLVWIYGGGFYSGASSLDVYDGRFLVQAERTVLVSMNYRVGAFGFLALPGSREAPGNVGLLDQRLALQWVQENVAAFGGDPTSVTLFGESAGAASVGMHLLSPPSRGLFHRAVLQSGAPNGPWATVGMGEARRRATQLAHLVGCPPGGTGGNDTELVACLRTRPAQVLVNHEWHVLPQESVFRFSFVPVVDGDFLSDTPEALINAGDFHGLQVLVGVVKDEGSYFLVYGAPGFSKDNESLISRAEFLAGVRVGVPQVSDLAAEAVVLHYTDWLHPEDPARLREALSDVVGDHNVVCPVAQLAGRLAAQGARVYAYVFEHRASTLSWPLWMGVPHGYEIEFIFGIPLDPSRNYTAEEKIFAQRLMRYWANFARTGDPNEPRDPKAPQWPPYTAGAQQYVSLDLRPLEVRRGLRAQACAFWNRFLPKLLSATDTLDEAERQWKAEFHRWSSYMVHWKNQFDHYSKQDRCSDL
procedure-text: Inhibition of AChE (unknown origin)
Write the answer as a number in nM, unit excluded.

Provide value of IC50 for this record tested with Acetylcholinesterase (Homo sapiens, UniProt P22303): COc1ccc2c(c1)[nH]c1c(C(C)=O)nccc12 [ARENARINE C]
4000

Now the compound "CC(C)n1c2ccccc2c2cc[n+](-c3ccccc3)cc21"
540

Also, O=C1C2Cc3c([nH]c4ccccc34)[C@@H](c3ccc4c(c3)OCO4)N2C(=O)CN1CCC1CCN(Cc2ccccc2)CC1 (some centres undefined) please.
36

Please do the same for "COc1ccc([C@@H]2c3[nH]c4ccccc4c3C[C@@H]3C(=O)N(CCC4CCN(Cc5ccccc5)CC4)CC(=O)N23)cc1" as well.
31

----------
test-system: Dual specificity protein kinase CLK4 (Homo sapiens, UniProt Q9HAZ1)
Sequence (Q9HAZ1 whole entry): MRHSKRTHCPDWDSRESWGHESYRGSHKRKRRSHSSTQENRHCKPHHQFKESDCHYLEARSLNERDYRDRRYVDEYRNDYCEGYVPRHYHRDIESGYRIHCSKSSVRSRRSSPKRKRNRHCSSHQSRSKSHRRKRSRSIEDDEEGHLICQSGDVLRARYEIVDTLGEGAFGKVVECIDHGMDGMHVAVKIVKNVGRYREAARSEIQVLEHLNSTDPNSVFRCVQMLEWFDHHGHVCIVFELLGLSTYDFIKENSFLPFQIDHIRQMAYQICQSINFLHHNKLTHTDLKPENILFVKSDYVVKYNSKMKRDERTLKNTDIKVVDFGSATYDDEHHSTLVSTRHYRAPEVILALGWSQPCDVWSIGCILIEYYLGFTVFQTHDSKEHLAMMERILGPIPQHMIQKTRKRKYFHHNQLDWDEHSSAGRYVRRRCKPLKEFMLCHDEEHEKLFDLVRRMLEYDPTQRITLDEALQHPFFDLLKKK
readout-kind: IC50 (nM)
Report only the number, with the unit nM understood.

// fetch Dual specificity protein kinase CLK4 (Homo sapiens, UniProt Q9HAZ1) IC50 for "COc1ccc2c(c1)[nH]c1c(C)nccc12"
24

----------
test-system: Tyrosine-protein kinase Lyn (Homo sapiens, UniProt P07948)
Sequence (P07948 whole entry): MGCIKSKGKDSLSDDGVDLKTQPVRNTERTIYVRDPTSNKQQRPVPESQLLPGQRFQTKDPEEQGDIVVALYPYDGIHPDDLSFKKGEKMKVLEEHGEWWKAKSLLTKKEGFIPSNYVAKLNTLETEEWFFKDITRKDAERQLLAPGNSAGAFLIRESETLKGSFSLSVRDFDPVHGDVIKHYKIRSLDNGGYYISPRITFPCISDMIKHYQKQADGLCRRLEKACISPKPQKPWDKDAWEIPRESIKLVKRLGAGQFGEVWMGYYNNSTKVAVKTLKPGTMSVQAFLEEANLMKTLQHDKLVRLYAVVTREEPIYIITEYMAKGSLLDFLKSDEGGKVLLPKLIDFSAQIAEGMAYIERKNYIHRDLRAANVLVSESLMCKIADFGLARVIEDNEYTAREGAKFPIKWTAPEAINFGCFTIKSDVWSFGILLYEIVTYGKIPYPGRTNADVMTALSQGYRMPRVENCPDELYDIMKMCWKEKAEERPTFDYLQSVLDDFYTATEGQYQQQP
readout-kind: IC50

// IC50 lookup, key: "COc1ccc2c(c1)[nH]c1c(C)nccc12"
> 250 µM

----------
test-system: Dual specificity protein kinase CLK3 (Homo sapiens)
Sequence (P49761 whole entry): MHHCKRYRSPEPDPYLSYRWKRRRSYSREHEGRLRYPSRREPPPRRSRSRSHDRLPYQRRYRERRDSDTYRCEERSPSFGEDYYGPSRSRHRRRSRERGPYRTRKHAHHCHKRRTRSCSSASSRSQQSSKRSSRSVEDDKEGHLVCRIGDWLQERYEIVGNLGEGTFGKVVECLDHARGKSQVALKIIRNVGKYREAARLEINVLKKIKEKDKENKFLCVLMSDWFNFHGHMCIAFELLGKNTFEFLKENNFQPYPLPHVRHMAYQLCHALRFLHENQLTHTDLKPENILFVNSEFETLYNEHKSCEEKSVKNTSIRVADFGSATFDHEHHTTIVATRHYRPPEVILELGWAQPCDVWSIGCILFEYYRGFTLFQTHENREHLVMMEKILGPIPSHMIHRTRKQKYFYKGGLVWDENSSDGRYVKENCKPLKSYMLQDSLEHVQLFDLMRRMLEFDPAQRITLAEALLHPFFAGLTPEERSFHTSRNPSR
readout-kind: IC50 (µM)
Just the number please, in µM, no unit attached.

Suppose we examine the compound "COc1ccc2c(c1)[nH]c1c(C)nccc12" ; what IC50 value has been reported?
3

----------
test-system: Gamma-aminobutyric acid receptor subunit alpha-2 (Homo sapiens)
procedure-text: Binding affinity to human recombinant GABAA alpha2 receptor assessed as inhibition constant incubated for 1 hrs by liquid scintillation counting analysis
Categorized via Ki: low range = under 4 nM, mid range = from 4 nM up to 10 nM, high range = 10 nM and over

Hi, small favor: classify "CCOC(=O)c1ncc2[nH]c3ccc(O)cc3c2c1COC" by its Ki when you get a moment.
mid range

Quick one: "c1ccc2c(c1)[nH]c1cnc3c4cccnc4[nH]c3c12"
high range

Try this compound too: "CCc1c(C(=O)OC)nc(C)c2[nH]c3cc(OC)c(OC)cc3c12"
mid range

// repeat for "COc1ccc2c(c1)[nH]c1c2ncc2[nH]c3ccccc3c21" and report
high range

Query "CCCC(=O)c1cc2c(cn1)[nH]c1ccccc12" next
high range

Likewise for "COCc1c(C(=O)OC(C)C)ncc2[nH]c3ccc(OCc4ccccc4)cc3c12" ?
low range

Now the compound "CCOC(=O)c1nc(C)c2[nH]c3cc(OC)c(OC)cc3c2c1CC"
high range

Likewise for "Clc1ccc2c(c1)[nH]c1c2ncc2[nH]c3ccccc3c21" ?
high range

Then this compound: "CCCOc1ccc2[nH]c3cnc(C(=O)OCC)c(COC)c3c2c1"
low range

Try the compound "CCOC(=O)c1ncc2[nH]c3ccc(OC)cc3c2c1COC"
low range

And what about the compound "CCCOc1cc2c(cn1)[nH]c1ccccc12" ?
high range

Also need "CCOC(=O)c1ncc2[nH]c3ccccc3c2c1COC" , thanks.
low range

----------
Record set of Ki for target or system 5-hydroxytryptamine receptor 5A (Homo sapiens).
Give the value, in units of µM, as a plain number.

// lookup Ki | system=5-hydroxytryptamine receptor 5A (Homo sapiens) | key= "c1ccc(-c2nccc3c2[nH]c2ccccc23)cc1"
1.4

// query: "c1ccc2c(-c3nccc4c3[nH]c3ccccc34)c[nH]c2c1"
0.17

----------
test-system: Gamma-aminobutyric acid receptor subunit alpha-2 (Homo sapiens, UniProt P47869)
Sequence (P47869 whole entry): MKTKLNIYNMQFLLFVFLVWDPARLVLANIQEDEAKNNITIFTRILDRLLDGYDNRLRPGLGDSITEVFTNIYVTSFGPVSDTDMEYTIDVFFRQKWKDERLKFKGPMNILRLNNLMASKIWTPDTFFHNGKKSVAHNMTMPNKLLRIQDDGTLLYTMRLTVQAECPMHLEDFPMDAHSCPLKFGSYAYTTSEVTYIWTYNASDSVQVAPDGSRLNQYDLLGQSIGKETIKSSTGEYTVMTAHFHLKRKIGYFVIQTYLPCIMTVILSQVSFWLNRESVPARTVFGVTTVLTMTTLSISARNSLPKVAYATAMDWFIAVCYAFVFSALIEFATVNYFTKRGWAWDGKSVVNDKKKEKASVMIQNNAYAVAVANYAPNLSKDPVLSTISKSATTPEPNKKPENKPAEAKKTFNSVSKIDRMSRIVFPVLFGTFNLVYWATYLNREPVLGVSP
procedure-text: Inhibition of human recombinant GABAA alpha2 receptor
readout-kind: IC50

Give the measured IC50 of CC(OC(=O)c1cc2c(cn1)[nH]c1ccccc12)c1ccccc1 (stereo unspecified) .
> 1000 nM

----------
test-system: 5-hydroxytryptamine receptor 2B (Homo sapiens)
Sequence (P41595 whole entry): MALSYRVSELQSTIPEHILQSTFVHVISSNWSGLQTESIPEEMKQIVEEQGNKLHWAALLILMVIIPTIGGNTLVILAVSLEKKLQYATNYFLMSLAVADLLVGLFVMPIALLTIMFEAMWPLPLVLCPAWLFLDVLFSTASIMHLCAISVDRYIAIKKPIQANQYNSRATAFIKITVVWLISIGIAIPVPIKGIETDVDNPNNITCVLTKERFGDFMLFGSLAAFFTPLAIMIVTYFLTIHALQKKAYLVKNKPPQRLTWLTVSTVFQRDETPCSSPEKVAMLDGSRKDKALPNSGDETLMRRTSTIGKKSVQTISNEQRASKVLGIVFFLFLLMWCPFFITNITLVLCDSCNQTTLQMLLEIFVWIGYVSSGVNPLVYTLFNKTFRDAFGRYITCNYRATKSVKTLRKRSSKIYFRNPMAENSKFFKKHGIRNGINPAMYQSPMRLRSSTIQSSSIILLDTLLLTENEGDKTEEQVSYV
procedure-text: Binding affinity to 5-HT2B (unknown origin) assessed as equilibrium binding constant
For each entry below, report its Kb value.

For COc1ccc(CC2NCCc3c2[nH]c2ccc(C)cc32)c(Br)c1OC (stereo unspecified) , what is its reported Kb?
< 0.3 nM

Try COc1ccc(CC2NCCc3c2[nH]c2c(C)c(C)ccc32)c(Br)c1OC (stereo unspecified) next.
0.08 nM

Request: COc1ccc(CC2NCCc3c2[nH]c2ccc(C)cc32)c(Cl)c1OC (stereo unspecified)
< 0.3 nM

And for c1ccc2c(CC3NCCc4c3[nH]c3ccccc43)cccc2c1 (stereo unspecified) ?
0.4 nM

Next entry: COc1ccc(CC2NCCc3c2[nH]c2cccc(I)c32)cc1OC (stereo unspecified)
< 0.3 nM

Another compound: COc1ccc(CC2NCCc3c2[nH]c2c(F)cc(F)cc32)cc1OC (stereo unspecified)
< 0.3 nM
